# System: rabbit LDL
# TEST SUMMARY: Inhibitory action on lipid peroxidation in vitro, Method A: oxidation of LDL by soybean lipoxygenase, fluorescence of the LDL fraction
# Format: biochemical
# CONDITION LABEL: 5 x 10^-6 M; fluorescence intensity of LDL fraction; SLO 40 µg/ml, 37°C, 24 hours
Listed here: items and their measured Percent (%) of Control.
Express the result in % but write the number alone.

The following molecules have reported results that may help.
# MOLECULE, Percent (%) of Control
data = [
    ("CCN(CCCN1C(=O)CSC1c1cc(C(C)(C)C)c(O)c(C(C)(C)C)c1)CCOc1ccc2c(c1)OCO2 (stereo not shown)", 6.4),
    ("CC1SC(c2cc(C(C)(C)C)c(O)c(C(C)(C)C)c2)N(CCCN(C)CCOc2ccc3c(c2)OCO3)C1=O (stereo not shown)", 6.2),
    ("CN(CCCN1C(=S)CSC1c1cc(C(C)(C)C)c(O)c(C(C)(C)C)c1)CCOc1ccc2c(c1)OCO2 (stereo not shown)", 11.3),
    ("COc1ccc([C@@H]2Sc3ccccc3N(CCN(C)C)C(=O)[C@@H]2OC(C)=O)cc1 [Diltiazem, reference compound]", 110.7),
    ("CN(CCCOc1ccc2c(c1)OCO2)CCCN1C(=O)CSC1c1cc(C(C)(C)C)c(O)c(C(C)(C)C)c1 (stereo not shown)", 3.9),
]

Percent (%) of Control recorded for this molecule, COc1ccc(CCN(C)CCCN2C(=O)CSC2c2cc(C(C)(C)C)c(O)c(C(C)(C)C)c2)cc1OC (stereo not shown) , is 0.6

Percent (%) of Control recorded for this molecule, CN(CCCCCN1C(=O)CSC1c1cc(C(C)(C)C)c(O)c(C(C)(C)C)c1)CCOc1ccc2c(c1)OCO2 (stereo not shown) , is 5.9

====

# Tested on: rabbit LDL
# TEST SUMMARY: Inhibitory action on lipid peroxidation in vitro, Method A: oxidation of LDL by soybean lipoxygenase, fluorescence of the LDL fraction
# Assay type: biochemical
# CONDITION LABEL: 5 x 10^-7 M; fluorescence intensity of LDL fraction; SLO 40 µg/ml, 37°C, 24 hours; 0.5 µM
# Experimental: A test compound was added to rabbit LDL prepared according to the method of Havel, et al. (Havel RJ et al., J. Clin. Invest., 34, 1345 (1955)), and then a soybean lipoxygenase type-IS (SLO) was added to a final concentration of 40 µg/ml. […] The oxidized LDL solution was analyzed by gel-permeation chromatography, and the fluorescence intensity of the LDL fraction was measured at an excitation wavelength of 360 nm and an emission wavelength of 430 nm.
REPORTED ENDPOINT: Percent (%) of Control
Express the result in % but write the number alone.

Percent (%) of Control recorded for this compound, CN(CCCOc1ccc2c(c1)OCO2)CCCN1C(=O)CSC1c1cc(C(C)(C)C)c(O)c(C(C)(C)C)c1 (stereo not drawn) , is 16.4

Percent (%) of Control recorded for this compound, CN(CCCN1C(=O)CSC1c1cc(C(C)(C)C)c(O)c(C(C)(C)C)c1)CCOc1ccc2c(c1)OCO2 (single isomer, unassigned; (-)) [Compound (71)] , is 12.7

Percent (%) of Control recorded for this compound, CN(CCCN1C(=O)CSC1c1cc(C(C)(C)C)c(O)c(C(C)(C)C)c1)CCOc1ccc2c(c1)OCO2 (single isomer, unassigned; (+)) [Compound (70)] , is 15.2

Percent (%) of Control recorded for this compound, CN(CCCN1C(=S)CSC1c1cc(C(C)(C)C)c(O)c(C(C)(C)C)c1)CCOc1ccc2c(c1)OCO2 (stereo not drawn) , is 22.8

Percent (%) of Control recorded for this compound, CCN(CCCN1C(=O)CSC1c1cc(C(C)(C)C)c(O)c(C(C)(C)C)c1)CCOc1ccc2c(c1)OCO2 (stereo not drawn) , is 16.8

Percent (%) of Control recorded for this compound, CC1SC(c2cc(C(C)(C)C)c(O)c(C(C)(C)C)c2)N(CCCN(C)CCOc2ccc3c(c2)OCO3)C1=O (stereo not drawn) , is 18.3
